Taken from PubChem BioAssay (NCI).

Test system: U251 CNS
Test: NCI-60 one-dose screen, 48 h (100 = growth as untreated, 0 = no growth, -100 = all killed)
Conditions: 10 µM unless noted
The panel holds about 83,000 compounds, 20% with a hit somewhere; the sample as a whole holds those more often. Active and inactive are the calls of the source. The calls were made as follows: active = growth percent below 10; inactive = the rest.
ENDPOINT_LABEL: growth

*Q* Given `COc1cc(/C=C/C(=O)c2c(C)nc3ccccc3c2C)ccc1OCCCCOc1cc2c(cc1OC)C(=O)N1CCC[C@H]1C=N2` , state its recorded growth.
*A* -97.8% (active)

*Q* # repeat for `CC(C)(C)Nc1c(-c2cccs2)nc2ncccn12`
*A* 104% (inactive)

*Q* Another compound to check: `O=c1cc/c(=N\Nc2ccccc2)c(=O)/c1=N/Nc1ccccc1`
*A* 104% (inactive)

*Q* Try `COc1ccc(CCNC2=CC(=O)CCC2)cc1OC` next.
*A* 107% (inactive)

---

Test system: SR leukemia
Test: NCI-60 one-dose screen, 48 h (100 = growth as untreated, 0 = no growth, -100 = all killed)
Settings: 10 µM unless noted
The panel holds about 83,000 compounds, 20% with a hit somewhere; the sample as a whole holds those more often.
ENDPOINT_LABEL: growth (%)
// units = %; emit number, no label

*Q* Kindly state the measured growth obtained for `Cc1cc(C(C)(C)C)ccc1S` with SR leukemia.
*A* 93.4

*Q* Please answer likewise for CCOC(=O)c1ccc(NC(=O)N2CC(C)OC(C)C2)cc1 (configuration not stated)
*A* 98.7

*Q* Quick one: CCCCCCCCCCCCCCCCCCNC(=O)[C@H]1CSC(c2ccc(OC)cc2O)N1 (some centres not stated)
*A* 9.44

*Q* Queued: `S=c1[nH]nc(-c2cc3ccc2CCc2ccc(cc2)CC3)n1-c1ccccc1`
*A* 96.6

*Q* For `COc1cc(/C=C/C(=O)c2cccc(-n3cc(-c4cc(OC)c(OC)c(OC)c4)[nH]c3=O)c2)cc(OC)c1OC` then?
*A* -12.7

*Q* What do we get for `C=C[C@@H]1C[C@@H]2Cc3c(C)cc(C)cc3N1O2` ?
*A* 6.7

*Q* Please answer likewise for `OCc1ncc(-c2ccccc2)s1`
*A* 107

---

System: A498 renal
Assay: NCI-60 one-dose screen, 48 h
Conditions: 10 µM unless noted
This is part of a sample that, as a whole, favours compounds with a hit. Of some 83,000 tested, about 20% had one in any assay. Active and inactive are the calls of the source. How the source made its calls: active means growth percent below 10; inactive means the rest.
The reply should be one of these categories: active, inactive

*Q* Hi team, can someone confirm the assay call for `O=C(Nc1cccc(-n2cc(-c3ccncc3)c(-c3ccc(Cl)c(O)c3)n2)c1)Nc1ccc(Cl)c(Cl)c1` ?
*A* inactive

*Q* Another compound to look at: CC1CCC(C)N(C)C1 (stereo not given)
*A* inactive

*Q* Another compound to check: `CCCOC(=O)n1cccc1`
*A* inactive

*Q* Now consider `Cc1ccc(S(=O)(=O)c2nc(-c3ccccc3)oc2S(C)(=O)=O)cc1` .
*A* inactive

*Q* Cool, now COc1cc(C2CC(c3ccc4c(c3)OCO4)=NN2C(C)=O)cc(OC)c1OC (stereo not given)
*A* inactive

*Q* Follow-up item: `COc1cc2c(cc1OCCCCCn1c3ccccc3c3ccccc31)N=C[C@@H]1CCCN1C2=O`
*A* active

*Q* Next up: `COc1ccc2c(c1)[nH]c(=O)c1c3cc(C)c(C)cc3cn21`
*A* inactive

*Q* Try CCCCCCCCC(C)OC(=O)c1nn(C(C)=O)c2ccccc12 (stereo not given) next.
*A* inactive

*Q* Now give it for `COc1cc(NC(=O)SC2=NCCS2)cc(OC)c1` too.
*A* inactive

*Q* Now the compound `CC(=O)Oc1csc(N(C(C)=O)c2cccc(C(F)(F)F)c2)n1`
*A* inactive

*Q* Query `CC(C)(C)n1cc(-c2ccnc(NCCCNS(=O)(=O)c3ccc(C(F)(F)F)cc3)c2)c(-c2cccc(O)c2)n1` next
*A* inactive

*Q* Same lookup for COc1cc(C2CC(c3ccc4c(c3)OCO4)=NN2C=O)cc(OC)c1OC (stereo not given) , please.
*A* inactive

*Q* How about this compound: COc1cc(C2C3=C(COC3=O)Nc3cc4c(cc32)OCO4)cc2c1OCO2 (stereo not given)
*A* inactive

*Q* Subsequent entry: `O=C(Nc1ccc(Cl)c(Cl)c1)NS(=O)(=O)c1cnccc1Oc1ccc(F)cc1`
*A* inactive

*Q* What about this compound? `O=c1ccn(-c2ncnc3nc[nH]c23)cc1`
*A* inactive

*Q* Consider next the compound `CC(C)(C)n1cc(-c2ccnc(NCCNS(=O)(=O)c3ccc(C(F)(F)F)cc3)c2)c(-c2cccc(O)c2)n1` in the same way.
*A* inactive

*Q* How about this compound: `NC(N)=Nc1nc2ccccc2o1`
*A* inactive

*Q* Try this compound next: `CN(CCCCN(C[C@H]1Cc2ncccc2CN1)[C@H]1CCCc2cccnc21)C1CCC(F)(F)CC1`
*A* inactive

*Q* Entry to check: `N=C(N)c1ccc(-c2ccc(-c3ccc(-c4cccs4)s3)s2)cc1`
*A* inactive

*Q* Entry `NC(=O)CCCN1C/C(=C\c2ccccc2)C(=O)c2ccccc21` please
*A* inactive

---

Test system: MCF7 breast
Test: NCI-60 one-dose screen, 48 h (100 = growth as untreated, 0 = no growth, -100 = all killed)
Details: 10 µM unless noted
The panel holds about 83,000 compounds, 20% with a hit somewhere; the sample as a whole holds those more often.
ENDPOINT_LABEL: growth (%)
// units = %; emit number, no label

*Q* Consider the compound shown here: CCCCCCCCCCCCNC(=O)[C@H]1CSC(c2cc(Br)cs2)N1 (stereo partly specified) What is its recorded growth?
*A* 49

*Q* Now consider C=C1CC2(OC1=O)C(=O)N(CCCN1C(=O)C3(CC(=C)C(=O)O3)c3ccccc31)c1ccccc12 (stereo unspecified) and answer again.
*A* -18.9

*Q* Also `O=C1/C(=C/c2ccc([N+](=O)[O-])cc2)CN(C(=O)CCN2CCC(=NO)CC2)C/C1=C\c1ccc([N+](=O)[O-])cc1` ?
*A* -55.4

*Q* Next compound up: `CC(=O)Oc1csc(N(C(C)=O)c2cc(C(=O)O)cc(C(=O)O)c2)n1`
*A* 95

*Q* Could you do the same for `COc1ccc(/C=C2\CN(Cc3cn(CCNc4ccnc5cc(Cl)ccc45)nn3)C/C(=C\c3ccc(OC)c(OC)c3)C2=O)cc1OC` , please?
*A* 28

*Q* Would you mind doing `CCNc1nc(S(=O)(=O)CC)nc2ccccc12` as well?
*A* 95.8

---

Tested on: NCI-H460 lung
Assay: NCI-60 one-dose screen, 48 h (100 = growth as untreated, 0 = no growth, -100 = all killed)
Conditions: 10 µM unless noted
Compounds without any hit were thinned out: in the full panel of roughly 83,000, 20% have a hit.
Would you mind telling me the reported growth of each entry?
Kindly provide the numeric value in % only, without the unit symbol.

*Q* For the compound shown here, `COc1ccc(NC(=O)c2cc(OC)c(OC)c(OC)c2)cc1O` , give the reported growth.
*A* 17.2

*Q* Repeat with `C=C(C)[C@@H]1C[C@@H]2Cc3cc(F)ccc3N1O2`
*A* 102

*Q* Same question, COc1ccc(OC)c(C2OC(c3ccc4ccccc4c3O)=NN2C(C)=O)c1 (stereo not given) this time
*A* 43

*Q* One more compound: COc1cc(C2C3=C(COC3=O)Nc3cc4c(cc32)CCC4)cc2c1OCO2 (stereo not given)
*A* 7.05

*Q* Similarly, OC(c1cc2cc(Br)ccc2c2cc(Br)ccc12)C1CCCCN1 (stereo not given) ?
*A* -71.7

*Q* And `COC(OC)c1ccccc1` ?
*A* 117

*Q* Item: `O=C(CSc1nc2ccccc2[nH]1)c1ccc(N2CCOCC2)cc1`
*A* 104

*Q* Now consider `O=C(Nc1cccc(-n2cc(-c3ccncc3)c(-c3ccc(Cl)c(O)c3)n2)c1)Nc1ccc(Cl)c(C(F)(F)F)c1` and answer again.
*A* -43.7

*Q* Do the same for CN(C)c1oc(C2OC2c2ccccc2)nc1C#N (stereo not given) please
*A* 109

*Q* Field entry: `CCCCN(CCCC)C(=O)CC`
*A* 108

*Q* Now this one: `CCOC(=O)c1c(NS(=O)(=O)c2ccc(C)cc2)sc2c1CCC1(C2)OCCO1`
*A* 100

*Q* Param item: `CCn1c2ccccc2c2cc(NC(=O)Nc3ccc([N+](=O)[O-])cc3C)ccc21`
*A* 19.5

*Q* Please do the same for `C=C[C@@H]1C[C@@H]2Cc3c(C)cc(C)cc3N1O2` as well.
*A* 99.8

*Q* One more compound: `c1cc2[nH]ncc2cc1-c1nc2ccc3[nH]ncc3c2c2c1CCC2`
*A* 31.5

*Q* Query `Clc1ccccc1-c1nc2ccccc2[nH]1` next
*A* 104

*Q* And for `C=C[C@@H]1C[C@H](O)Cc2ccccc2N1` ?
*A* 107

*Q* Entry `COc1cc(/C=C/C(=O)N2CCN(C(=O)/C=C/c3cc(OC)c(OC)c(OC)c3)CC2)cc(OC)c1OC` please
*A* 104

*Q* Now give it for `Cc1c(C(=O)/C=C/c2csc3ccccc23)[n+](=O)c2ccccc2n1[O-]` too.
*A* 66.6

*Q* Okay, and `COc1cc(/C=C/C(=O)/C=C/c2cc(OC)c3c(c2)OCO3)cc2c1OCO2` ?
*A* 105

*Q* For `O=c1[nH]c(Nc2ccc(S(=O)(=O)O)cc2)nc2nc(Nc3ccc(NC(=S)Nc4ccccc4)cc3)nc(-c3ccc(O)cc3O)c12` then?
*A* 105
